Tested on: F18-positive E. coli strain 107/86
Measurement description: Carbohydrate inhibition in the in vitro villous adhesion assay (bacteria pre-incubated with saccharide)
Format: cell-based, Escherichia coli
Assay conditions: Example 18; 1 mg saccharide in 100 μl PBS, 1 h pre-incubation; villi of two pigs
Property measured: Inhibition of F18+ E. coli adherence to porcine intestinal villi (%)
Hi! Could you send only the number? It should be in %, unit omitted.

Solved entries:
Find the measured Inhibition of F18+ E. coli adherence to porcine intestinal villi: item CC(=O)NC1C(OC2C(O)C(CO)OC(OC3C(CO)OC(O)C(O)C3O)C2O)OC(CO)C(O)C1OC1OC(CO)C(O)C(OC2OC(CO)C(O)C(O)C2O)C1OC1OC(C)C(O)C(O)C1O (stereo not shown) [B6-1, Galα3(Fucα2)Galβ3GlcNAcβ3Galβ4Glc] , target or system F18-positive E. coli strain 107/86.
86.8

Follow-up item: CC(=O)N[C@H]1[C@H](O[C@H]2[C@@H](O)[C@@H](CO)O[C@@H](O[C@H]3[C@H](O)[C@@H](O)C(O)O[C@@H]3CO)[C@@H]2O)O[C@H](CO)[C@@H](O)[C@@H]1O[C@@H]1O[C@H](CO)[C@H](O)[C@H](O)[C@H]1O (stereo partly shown) [LNT, Galβ3GlcNAcβ3Galβ4Glc, reference compound]
2.8

Same question for CC(=O)NC1C(OC2C(O)C(CO)OC(OC3C(O)C(CO)OC(OC4C(O)C(CO)OC(OC5C(CO)OC(O)C(O)C5O)C4O)C3NC(C)=O)C2OC2OC(C)C(O)C(O)C2O)OC(CO)C(O)C1O (stereo not shown) [A6-1, GalNAcα3(Fucα2)Galβ3GlcNAcβ3Galβ4Glc] please.
72.9

We next turn to a different compound, shown below.
What value of Inhibition of F18+ E. coli adherence to porcine intestinal villi on F18-positive E. coli strain 107/86 does CC(=O)N[C@H]1[C@H](O[C@H]2[C@@H](O)[C@@H](CO)O[C@@H](O[C@H]3[C@H](O)[C@@H](O)C(O)O[C@@H]3CO)[C@@H]2O)O[C@H](CO)[C@@H](O)[C@@H]1O[C@@H]1O[C@H](CO)[C@H](O)[C@H](O)[C@H]1O[C@@H]1O[C@@H](C)[C@@H](O)[C@@H](O)[C@@H]1O (stereo partly shown) [H5-1, Fucα2Galβ3GlcNAcβ3Galβ4Glc] have?
52.4

Ref: patent US8703722B2
